test: MMV: MTT Cytotoxicity Assay Day 7 pi of Assay #6 (compound washed out Day 1 pi), U87-CD4-CCR5 cells, % cell death @ 5mM compound; type: toxicity, cell-based; conditions: human, u87-cd4-ccr5, 5000 µM
Quick reference: % Cell Death of the listed items.
outcome.measure: % Cell Death

INSERT INTO assay_data (molecule, value_measured) VALUES
  ('CCCCCCn1c(=N)n(CC(O)COc2cccc(C)c2)c2ccccc21.Cl (configuration not stated)', 33),
  ('CCn1c(SCC(=O)Nc2cc(C(F)(F)F)ccc2Cl)nc2ccccc2c1=O', 23),
  ('Cc1nc2ccccc2c(O)c1CC=C(Cl)Cl', -2),
  ('COc1cccc(C(=O)Nc2ccc(-c3nc4ccccc4[nH]3)cc2)c1', 3),
  ('CN1CCN(c2c3c(c(C#N)c4nc5ccccc5n24)CCC3)CC1', 1),
  ('CN(C)c1ccc(C=Cc2nc(=O)c3ccccc3o2)cc1', -14),
  ('COc1ccc(C2C(C(=O)Nc3cccc(OC)c3)c3ccccc3C(=O)N2C2CCCCC2)cc1 (configuration not stated)', 18);

----------
test: MMV: MTT Cytotoxicity Assay Day 3 pi, U87-CD4-CCR5 cells, % cell death @ 5mM compound; assay type: toxicity, cell-based; settings: human, u87-cd4-ccr5, 5000 µM
Each entry gets 0.0 if its % Cell Death stays under 30, and 1.0 if its % Cell Death is 30 or above.

INSERT INTO assay_data (compound, assigned_category) VALUES
  ('c1ccc2cc3c(Nc4ccc(N5CCOCC5)cc4)ccnc3cc2c1', 1.0),
  ('COc1ccccc1NC1=C(N2CCCCC2)C(=O)c2ccccc2C1=O', 1.0),
  ('Cc1nc2ccccc2c(O)c1CC=C(Cl)Cl', 0.0),
  ('CCCc1cc(O)c2c3c(c(=O)oc2c1)CN(C)CC3', 0.0),
  ('OC1=C2C(=Nc3ccccc3SC2c2ccccc2)c2ccccc21 (stereo not given)', 1.0),
  ('COc1ccc2nc(C)cc(Nc3ccccc3O)c2c1', 0.0),
  ('CCCCCCC(O)(c1ccc(F)cc1)C(CN1CCOCC1)c1ccccc1.Cl (stereo not given)', 0.0),
  ('COc1cc(C(=O)ON=C(N)Cc2cccc3ccccc23)cc(OC)c1OC', 0.0),
  ('Cc1sc2ncnc(Sc3nc4ccccc4[nH]3)c2c1C', 0.0),
  ('CCN(CC)CCCNc1ccnc2cc3ccccc3cc12', 1.0),
  ('Cc1cc(Nc2ccc(Cl)cc2)n2nc(C(F)(F)F)nc2n1', 0.0),
  ('COc1ccc(C(=O)Nc2ccc(Cl)cc2C(=O)Nc2ccncc2)cc1', 0.0),
  ('CCOc1ccc(C2N(C)c3ccccc3N2C)cc1', 1.0),
  ('COc1nc(Nc2ccc(C(C)C)cc2)nc(OC)n1', 0.0),
  ('COc1ccc2nc(N)nc(C)c2c1', 0.0),
  ('O=C(Nc1ccc(F)c(Cl)c1)Nc1ccc(Cl)c(Cl)c1', 0.0),
  ('CC(C)(C)c1ccc2c(c1)CN(Cc1ccc(Cl)cc1)CO2', 1.0),
  ('CCn1nc(-c2ccc(C(=O)OC)cc2)nc2c(=O)n(C)c(=O)nc1-2', 0.0),
  ('COc1cc(OC)c(N(C)C(=O)c2cc3c(s2)-c2ccccc2S(=O)(=O)C3)cc1Cl', 0.0),
  ('N=c1n(CCN2CCCCC2)c2ccccc2n1CC(=O)c1ccc(Cl)c(Cl)c1', 0.0),
  ('Cc1cc(NC(=O)C2c3ccccc3C(=O)N(CC(C)C)C2c2cccs2)no1 (stereo not given)', 0.0),
  ('CCCCNc1nc(NC(C)(C)C)nc(NC(C)(C)C)n1', 0.0),
  ('CC(=O)c1ccc(NC(=O)CSc2nc(-c3ccccc3Cl)ns2)cc1', 1.0),
  ('CCOC(=O)C1(Cc2ccccc2)CCN(Cc2cccc(OC)c2O)CC1', 0.0),
  ('COc1ccc(-c2cc3c(SCC(=O)Nc4cc(C(F)(F)F)ccc4Cl)nccn3n2)cc1', 0.0);
